test system: TK-10 renal; experiment: NCI tumour cell line growth inhibition, 48 h
TGI by entry:

Query: Answer with TGI of `N#CC(CCN1CCC(Nc2ccccc2)(c2nnnn2C2CCCCC2)CC1)(c1ccccc1)c1ccccc1` measured for TK-10 renal.
Result: > 100 µM

***
Query: Answer with TGI of `C=CCn1c(=S)sc2c(C(=O)OCC)c3c(C)cc(C)cn3c2c1=O` measured for TK-10 renal.
Result: > 100 µM

Query: Answer with TGI of O=C(O)CCC(=O)OCN1C(=O)C2C3C=CC(C2C1=O)C1C2C(=O)N(COC(=O)CCC(=O)O)C(=O)C2C31 (centres undefined) measured for TK-10 renal.
Result: > 100 µM

Query: Answer with TGI of `FC(F)(F)c1cc(N(C2c3ccccc3C=Cc3ccccc32)P(Cl)Cl)cc(C(F)(F)F)c1` measured for TK-10 renal.
Result: > 100 µM

Query: Answer with TGI of `C/C(=C\c1ccn(-c2ccccc2N)n1)[C@@H]1C[C@@H]2O[C@]2(C)CCC[C@H](C)[C@H](O)[C@@H](C)C(=O)C(C)(C)[C@@H](O)CC(=O)O1` measured for TK-10 renal.
Result: > 50 µM

###

tested on: SK-MEL-5 melanoma; test: NCI tumour cell line growth inhibition, 48 h
Cut-off 9 µM on TGI, inclusive. At or above means Y; below means N.

Query: Could you please find out whether CCCCC(SC(=S)N1CCCC1)C(=O)Nc1nc(CC(=O)OCC)cs1 (stereo not given) has TGI that meets 9 µM or exceeds it?
Result: Y

Query: Could you please find out whether `CNc1nnc(CCCCCCCCc2nnc(NC)o2)o1` has TGI that meets 9 µM or exceeds it?
Result: Y

Query: Could you please find out whether `NC(=N\N=C/c1ccc(O)cc1)/C(N)=N\N=C/c1ccc(O)cc1` has TGI that meets 9 µM or exceeds it?
Result: Y

Query: Could you please find out whether COC(=O)CCC(NC(=S)N/N=C(\C)c1ccc[nH]1)C(=O)OC (stereo not given) has TGI that meets 9 µM or exceeds it?
Result: Y

Query: Could you please find out whether `CCOc1ccc2c(-c3ccnc(Nc4cc(OC)cc(C(F)(F)F)c4)n3)cnn2n1` has TGI that meets 9 µM or exceeds it?
Result: Y

###

test system: UO-31 renal; assay: NCI tumour cell line growth inhibition, 48 h
log10 TGI by entry:
# log10 transformed; quantity=TGI; unit=µM

Query: Answer with log10 TGI of `O=C(CCN1CCOCC1)/C(=C/c1ccccc1)c1ccccc1` measured for UO-31 renal.
Result: 1.45

Query: Answer with log10 TGI of `CN(C)c1ccc(Nc2c3ccccc3nc3ccccc23)cc1` measured for UO-31 renal.
Result: 0.27

Query: Answer with log10 TGI of `COc1ccc(-c2cc(=O)n(-c3nc4ccccc4[nH]3)[nH]2)cc1OC` measured for UO-31 renal.
Result: 1.27

Query: Answer with log10 TGI of C=C(C(=O)O[C@H]1C/C(C)=C/CC/C(CO)=C/[C@H]2C(=O)OC(=C)[C@H]12)C(O)CO (stereo not given in full) measured for UO-31 renal.
Result: 1.44

***
Query: Answer with log10 TGI of `CCC[CH2][Sn]([CH2]CCC)([O]C(=O)c1cc(OC)c(OC)cc1OC)[O][Sn]([CH2]CCC)([CH2]CCC)[O]C(=O)c1cc(OC)c(OC)cc1OC` measured for UO-31 renal.
Result: 0.41

###

tested on: SNB-19 CNS; test: NCI tumour cell line growth inhibition, 48 h
quantity: TGI

As a guide, the following entries are already answered.
Query: Answer with TGI of `CCN1C/C(=C\c2ccc(Cl)cc2)c2nc(N)c(C#N)c(-c3ccc(Cl)cc3)c2C1` measured for SNB-19 CNS.
Result: > 100 µM

Query: Answer with TGI of `CCCCNNC(=O)c1ccc(Br)cc1` measured for SNB-19 CNS.
Result: > 50 µM

Query: Answer with TGI of CC(C(=O)OCc1ccccc1)N(Cc1ccccc1)Cc1ccccc1 (stereo not given) measured for SNB-19 CNS.
Result: > 100 µM

***
Query: Answer with TGI of `O=C1CCc2c(sc3[nH]c(=S)n(-c4cc(C(F)(F)F)cc(C(F)(F)F)c4)c(=O)c23)C1` measured for SNB-19 CNS.
Result: > 37 µM

Query: Answer with TGI of `O=C(/C(=C(/O)c1ccccc1)c1nc2ccccc2sc1=O)c1ccccc1` measured for SNB-19 CNS.
Result: > 100 µM

Query: Answer with TGI of `C=CCn1c(=S)sc2c(C(=O)OCC)c3c(C)cc(C)cn3c2c1=O` measured for SNB-19 CNS.
Result: > 100 µM

Query: Answer with TGI of `NC(=N\N=C/c1ccc(O)cc1)/C(N)=N\N=C/c1ccc(O)cc1` measured for SNB-19 CNS.
Result: > 100 µM

Query: Answer with TGI of `C[C@]12CC[C@H]3[C@@H](CCC4=CC(=O)C=C[C@@]43OC(=O)C(F)(F)F)[C@@H]1CCC2=O` measured for SNB-19 CNS.
Result: > 100 µM

Query: Answer with TGI of `CCCC[C@@H](C)/C=C1\CN2CCC[C@H]2[C@@](C)(OCc2ccccc2)[C@@H]1O` measured for SNB-19 CNS.
Result: > 50 µM

Query: Answer with TGI of NC(Cc1ccc(OCc2ccccc2)cc1)C(=O)NC(Cc1ccccc1)C(=O)Oc1c(Cl)c(Cl)c(Cl)c(Cl)c1Cl (stereo not given) measured for SNB-19 CNS.
Result: 34 µM

###

test system: RPMI-8226 leukemia; experiment: NCI tumour cell line growth inhibition, 48 h
quantity: TGI

Query: Give the reported TGI for this compound. `COc1ccc(-c2cc(=O)n(-c3nc4ccccc4[nH]3)[nH]2)cc1OC`
Result: 41.3 µM

Query: Give the reported TGI for this compound. `CN1C(=O)c2ccc3ccccc3c2C1=O`
Result: > 100 µM

Query: Give the reported TGI for this compound. `O=c1cccccc1[O-].O=c1cccccc1[O-].O=c1cccccc1[O-].[Eu+3]`
Result: > 100 µM

***
Query: Give the reported TGI for this compound. COC(=O)[C@@H]1CS(=O)(=O)C(C(C)C)N1C(C)=O (stereo partly specified)
Result: > 100 µM

Query: Give the reported TGI for this compound. CC1C(NNC(N)=O)Oc2cc3c(cc2C1c1ccccc1O)OCO3 (stereo unspecified)
Result: 78.6 µM

Query: Give the reported TGI for this compound. `FC(F)(F)c1cc(N(C2c3ccccc3C=Cc3ccccc32)P(Cl)Cl)cc(C(F)(F)F)c1`
Result: 51.2 µM

Query: Give the reported TGI for this compound. `Cc1cc(S(=O)(=O)Nc2nc3ncccc3[nH]2)c(S)cc1Cl`
Result: > 100 µM

Query: Give the reported TGI for this compound. C[C@H]1[C@H](C)N1CC(O)Cn1ccnc1[N+](=O)[O-] (stereo partly specified)
Result: > 100 µM

Query: Give the reported TGI for this compound. CCCCC(SC(=S)N1CCCC1)C(=O)Nc1nc(CC(=O)OCC)cs1 (stereo unspecified)
Result: 90.9 µM

Query: Give the reported TGI for this compound. Cc1ccc(S(=O)(=O)NC(=O)NC(Cc2ccc(O)cc2)C(=O)O)cc1 (stereo unspecified)
Result: > 100 µM

Query: Give the reported TGI for this compound. `COc1cc(/C=C2\CC/C(=C\c3cc(OC)c(O)c(OC)c3)C2=O)cc(OC)c1O`
Result: 4.01 µM

Query: Give the reported TGI for this compound. `CCOc1ccc2c(-c3ccnc(Nc4cc(OC)cc(C(F)(F)F)c4)n3)cnn2n1`
Result: > 25 µM

Query: Give the reported TGI for this compound. `O=C1NC(=O)c2ccccc2/C1=C/c1ccc2c(c1)OCO2`
Result: 74.3 µM

###

system: SF-268 CNS; assay: NCI tumour cell line growth inhibition, 48 h
quantity: TGI

As a guide, the following entries are already answered.
Query: Give the reported TGI for this molecule. CC(C)(C)OC(=O)NC12C3C4C1C1C2C3C41NC(=O)OC(C)(C)C (stereo unspecified)
Result: > 100 µM

Query: Give the reported TGI for this molecule. `OCCCCC#Cc1ccccc1C#Cc1ccc(O)cc1`
Result: 41.7 µM

Query: Give the reported TGI for this molecule. `O=C(/C(=C(/O)c1ccccc1)c1nc2ccccc2sc1=O)c1ccccc1`
Result: > 100 µM

Query: Give the reported TGI for this molecule. `C=CO/N=[N+](\[O-])N(CC)CC`
Result: > 100 µM

Query: Give the reported TGI for this molecule. `O=C1NC(=O)c2ccccc2/C1=C/c1ccc2c(c1)OCO2`
Result: 82.1 µM

Turning to the following molecule.
Query: Give the reported TGI for this molecule. `Cn1cccc1-c1ccc(-c2ccc(CO)[se]2)[se]1`
Result: > 100 µM

###

tested on: NCI/ADR-RES ovarian; experiment: NCI tumour cell line growth inhibition, 48 h; in the data active = GI50 below about 0.43 µM; inactive = the rest
Lab note: assign the record to one of Y for active, N for inactive

Query: Please state the recorded outcome for this compound: `COC(=O)c1cc(-c2ccccc2)[nH]c1N/N=C/c1c(Cl)cccc1Cl`
Result: Y

Query: Please state the recorded outcome for this compound: `C/C(=C\c1ccn(-c2ccccc2N)n1)[C@@H]1C[C@@H]2O[C@]2(C)CCC[C@H](C)[C@H](O)[C@@H](C)C(=O)C(C)(C)[C@@H](O)CC(=O)O1`
Result: Y

Query: Please state the recorded outcome for this compound: `COc1ccc2c(c1)/C(=C\c1ccncc1)C(=O)N2`
Result: N

***
Query: Please state the recorded outcome for this compound: `CCCCCCCCCCCC1=NC(C)(C)CN1C(C)(C)CO`
Result: N

Query: Please state the recorded outcome for this compound: COC(C)(C)[C@@H](O)[C@H](O)C[C@H](C)C1=C2CC[C@@H]3[C@@]4(C)CC[C@@H](OC(C)=O)C(C)(C)[C@@H]4C[C@@H](OC4OC(COC(C)=O)C(O)C(O)C4O)[C@@]3(C)[C@]2(C)CC1 (stereo partly drawn)
Result: N

Query: Please state the recorded outcome for this compound: `COc1cc2c3c(n(CCCN)c(=O)c2cc1OC)-c1ccc([N+](=O)[O-])cc1C3=O`
Result: N

Query: Please state the recorded outcome for this compound: `COC(=O)c1c2c(c(C)[n+]([O-])c1C)C(=O)C=C(NCc1ccccc1)C2=O`
Result: N

Query: Please state the recorded outcome for this compound: `COc1ccc(-c2cc(=O)n(-c3nc4ccccc4[nH]3)[nH]2)cc1OC`
Result: N

Query: Please state the recorded outcome for this compound: `C=C1C(=O)O[C@H]2[C@H]1CC/C(COC(=O)CCCCCC(=O)OC/C1=C/CC[C@@]3(C)O[C@H]3[C@H]3OC(=O)C(=C)[C@@H]3CC1)=C\CC[C@@]1(C)O[C@@H]21`
Result: N

Query: Please state the recorded outcome for this compound: `C=CC(=O)N1CCC(c2ccc(C(N)=O)c(-c3ccc(Oc4ccccc4)cc3)n2)CC1`
Result: N

Query: Please state the recorded outcome for this compound: Nc1ccn(C2CC(F)C(CO)O2)c(=O)n1 (stereo not drawn)
Result: N

Query: Please state the recorded outcome for this compound: `O=C(NCCN1CCOCC1)OCc1nc2nc(Cl)nc(N3CCOCC3)c2[nH]1`
Result: N

Query: Please state the recorded outcome for this compound: `CN(C)C(=O)Nc1nc2cc(Cl)c(Cl)cc2[nH]1`
Result: N
